Entry source: patent US20240262814A1

Molecular target: human TREX1 (Homo sapiens)
Construct: N-terminally His-Tev tagged full length human TREX1
Sequence (Q9NSU2 whole entry): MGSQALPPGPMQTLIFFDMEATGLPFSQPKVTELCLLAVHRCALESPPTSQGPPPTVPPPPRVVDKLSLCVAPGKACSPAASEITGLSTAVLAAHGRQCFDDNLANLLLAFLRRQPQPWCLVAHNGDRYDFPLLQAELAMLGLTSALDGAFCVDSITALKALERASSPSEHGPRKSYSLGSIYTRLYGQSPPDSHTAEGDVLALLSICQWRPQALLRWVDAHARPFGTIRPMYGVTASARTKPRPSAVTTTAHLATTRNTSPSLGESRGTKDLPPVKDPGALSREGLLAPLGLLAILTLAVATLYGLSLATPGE
Assay: hTREX1 Biochemical Assay (fluorescence, dsDNA substrate degradation)
Conditions: full length human TREX1, 4 h pre-incubation, 18 h reaction at 25° C.
parameter: IC50

Worked examples follow.
| compound | result |
| --- | --- |
| CC(c1nc(C(=O)Nc2cnoc2)c(O)c(=O)n1C)C(c1ccc(F)cc1F)c1ccccc1C#N (single isomer, unassigned) [Example 13 Isomer 1] | < 1 nM |
| CC(c1nc(C(=O)Nc2cnoc2)c(O)c(=O)n1C)C(c1ccccc1)c1ccc(Cl)cc1C#N (single isomer, unassigned) [Example 9 Isomer 3] | > 100 nM |
| CC(c1nc(C(=O)Nc2cnoc2)c(O)c(=O)n1C)C(c1ccc(F)c(F)c1)c1ccccc1C#N (single isomer, unassigned) [Example 12 Isomer 3] | < 1 nM |

Then this compound:
Q. Record CC(c1nc(C(=O)Nc2cnoc2)c(O)c(=O)[nH]1)C(c1ccccc1C#N)c1ccccc1C#N (single isomer, unassigned) [Example 5 Isomer 1] : what is its IC50 with human TREX1 (Homo sapiens)?
A. < 1 nM
